Reference source: ChEMBL document CHEMBL3988442

Provide the recorded Percent Effect for the entries that follow.
- System: Wolbachia pipientis
- Test method notes: Anti-Wolbachia Cell-Based Screen
- Assay type: functional
- Set-up: scale not given: in the data most compounds retested in dose-response had high values
- Measurement context: 5 µM
Screen size: about 48,000 compounds; about 13,000 (27%) showed an effect of 50% or more. The list shows a part of the results.
Give bare numbers, in %.

Molecule: O=c1oc(-c2ccc(F)cc2)nn1CN1CCN(C2CCCC2)CC1
Percent Effect (%): -7.879

Molecule: O=C(NCCOc1ccc(F)c(F)c1)NCc1cccc(CO)c1
Percent Effect (%): -4.638

Molecule: OCCc1cc(CC2(NCc3ccncc3)COC2)no1
Percent Effect (%): 9.116

Molecule: CC(NCc1cnc(C2CCC2)s1)c1ccc(-n2cncn2)cc1 (stereo not given)
Percent Effect (%): -68.33

Molecule: Cc1noc(C(C)C)c1C(=O)NCCC(=O)N1CCCCC1
Percent Effect (%): 90.26

Respectfully, I request Percent Effect for each entry included below.
1. CC(C)Cn1cc(NC(=O)NCC2CCN(c3ccccc3)C2)cn1 (stereo not given)
2. CC(=O)N1CCN(Cn2nc(-c3ccc(F)cc3)oc2=O)CC1
3. CNS(=O)(=O)c1ccc(C(=O)NCCc2ccccn2)cc1
4. CC1CCN(Cn2nc(-c3ccc(F)cc3)oc2=O)CC1

1: -4.161; 2: 6.471; 3: -0.4969; 4: 4.807

Hey, can you go through the list below and give me Percent Effect for every item?
1. CC(NC(=O)NCCN1CCCCCC1=O)c1nncn1C (stereo not given)
2. Cc1noc(C(C)C)c1C(=O)NCCCN1CCNCC1.Cl
3. CCCc1noc(CCCC(=O)N2CCCC(n3ccnc3C)C2)n1 (stereo not given)
4. Cc1noc(C)c1C(=O)NCCN1CCOCC1
5. CS(=O)(=O)N1CCc2sc(C(=O)NCc3ccncc3)cc21
6. Cc1cnc(CNC(=O)c2cc3c(s2)CCN3S(C)(=O)=O)cn1

1: -0.9457; 2: 114.5; 3: -4.622; 4: 15.76; 5: 102.3; 6: -3.088

Provide Percent Effect for all items below, preserving their order.
1. O=C(c1ccccc1-c1nnn[nH]1)N1CCOC(C(F)(F)F)C1 (stereo not given)
2. O=c1oc(-c2ccc(F)cc2)nn1CC1CCCCO1 (stereo not given)
3. O=C(NCCc1ccccn1)C1=NN(c2ccccc2)C(=O)CN1
4. Cc1noc(C(C)C)c1C(=O)NCCCN1CCCCCC1=O
5. COC(=O)N1CCc2ccccc2C1C(=O)NCc1ccncc1 (stereo not given)
6. COC(=O)C1CCN(C(=O)Nc2cc(-n3cccc3)ccc2F)CC1
7. O=C(Nc1cc(-n2cccc2)ccc1F)N1CCCC1
8. Cc1cccc(NC2CCN(C(=O)Nc3cc(F)ccc3F)CC2)n1

1. -13.17
2. -16.49
3. 14.32
4. 122
5. 5.289
6. -12.66
7. -21.77
8. 100.1

Dear colleague, could you please provide Percent Effect for the molecules listed below?
1. Cc1nn(C)c(C)c1S(=O)(=O)NCCn1ccc(-c2cccs2)n1
2. O=c1oc(-c2ccc(F)cc2)nn1CC1CCOC1 (stereo not given)

1. -20.8
2. -10.24
